propertyLabel: melting point

{"columns": ["structureSmiles", "propertyLabel", "value"],
 "data": [
  ["COc1cc(NS(=O)(=O)c2ccc3c(ccn3C)c2)cc(OC)c1OC", "melting point", "188 to 189 °C"]
]}

I have this compound here, `CC(C)[C@H](NC(=O)OC(C)(C)C)[C@H](O)C(F)(F)F` , and I need its recorded melting point. 87 to 88 °C

Likewise for `CC1(C)OC=C(CS(=O)(=O)c2ccc(F)cc2)C1=O` ? 159 to 160 °C

Likewise for `C#CCN1CCC(C(C)(C)C)CC1` ? 48 to 49 °C

Likewise for `CN(C)c1cccc(-n2c(=O)c(CCCc3ccncc3)cc3cccnc32)c1` ? 124 to 127 °C

Likewise for `CCCCCCCCCCCCCCc1ccc(O)c(C(=O)CCCCC)c1` ? 41 to 42 °C

----------
Quick reference for melting point among some compounds

Consider the worked cases shown below.
{"columns": ["compound", "melting point"],
 "data": [
  ["O=C(Cn1ccnc1[N+](=O)[O-])c1cccnc1", "125 to 127 °C"],
  ["CC(C)CCCC(C)C1C(O)CC2C3=CC=C4C(C)(C)C(O)CCC4(C)C3CCC21C (stereo unspecified)", "171 to 173 °C"],
  ["CCCCCc1cc2c(cc1/C=C/C=C/C(C)=C/C(=O)O)C(C)(C)CCC2(C)C", "164 to 166 °C"],
  ["COc1ccccc1CN[C@H]1CCCN[C@H]1c1ccoc1 (relative stereo)", "> 247 °C"],
  ["COc1ccc(CCNC(=O)C(=O)NCc2ccc(NC(C)=O)cc2)cc1OC1CCCC1", "235 to 236 °C"]
]}

I have this compound here, `COC(=O)c1sccc1NC(=O)CC#N` , and I need its recorded melting point. 146 °C

Likewise for `COC(=O)c1cccn1Cc1ccccc1[N+](=O)[O-]` ? 105 to 107 °C

----------
Quick reference for melting point among some molecules

Consider the worked cases shown below.
{"columns": ["molecule", "propertyLabel", "value"],
 "data": [
  ["NCCNC(c1ccccc1)c1ccccc1", "melting point", "23 to 24 °C"],
  ["COC(=O)/C=C/n1cnc2ccc(O)cc2c1=O", "melting point", "252 to 256 °C"],
  ["COc1cc(OC)cc(-c2nc[nH]c2-c2ccc(OC(F)F)c(O)c2)c1", "melting point", "159 to 161 °C"],
  ["CC(=O)C(C)(N=Nc1ccc(C(O)(C(F)(F)F)C(F)(F)F)cc1)C(N)=O (stereo unspecified)", "melting point", "148 to 152 °C"],
  ["CCCCCCS(=O)(=O)Cc1ccc(C(C)(C)NC(=O)OC)cc1", "melting point", "104 to 105 °C"]
]}

I have this molecule here, `CCC(=O)N1c2ccccc2NC(=O)c2cscc21` , and I need its recorded melting point. 222 to 224 °C

Likewise for COc1cc2c(cc1OC)CCN(CCCN(C)C1CCc3cc(OC)c(OC)cc3C1)CC2 (stereo unspecified) ? 92 to 93 °C

Likewise for `Cc1cc(S(=O)(=O)NCc2ccccc2)c2c(C)ccc(C(C)C)cc1-2` ? 124 to 126 °C

Likewise for `COc1cc2nc(N)nc(-c3ccc(O)cc3Cl)c2cc1OC` ? 245 to 247 °C

Likewise for `CCCN(CCC)CCCCCOc1ccc2oc(-c3cccc(OC)c3)cc(=O)c2c1` ? 80 to 81 °C

Likewise for CC1(C(=O)N2CCOCC2)COC(c2nc(-c3ccc(F)cc3)c(-c3ccnc(S(C)(=O)=O)n3)[nH]2)OC1 (stereo unspecified) ? 264 to 266 °C

Likewise for OC(CCN1CCC(c2ccc(F)cc2)CC1)c1ccc(-c2ccccc2)cc1 (stereo unspecified) ? 129 to 132 °C

Likewise for `C[C@@H](n1cnc2cc(F)c(F)cc2c1=O)[C@](O)(Cn1cncn1)c1ccc(F)cc1F` ? 212 to 213 °C
